Known melting point of a selection of molecules
MEASURED ATTRIBUTE: melting point

> print(dat)
                                   molecule     meas.value
1  Cc1cc2c(cc1C(F)(F)F)NC(=O)CC(c1cccc(-c3cc(N)ncn3)c1)=N2 [Example 328]  201 to 205 °C
2  Cc1cc(-c2cc(C3=Nc4cc(C)c(Cl)cc4NC(=O)C3)ccn2)ccn1 [Example 295]  225 to 227 °C
3  Cc1cc2c(cc1C(F)(F)F)NC(=O)CC(c1cccc(-c3ccnc(C#N)c3)c1)=N2 [Example 199]  205 to 211 °C
4  COc1ccc(-c2cccc(C3=Nc4ccc(C(F)(F)F)cc4NC(=O)C3)c2)cn1 [Example 50]  210 to 215 °C

###

Known melting point of a selection of molecules
MEASURED ATTRIBUTE: melting point

> print(dat)
                              line.notation  measured.attribute     meas.value
1  Cc1cc(-c2cccc(C3=Nc4cc(C)c(C(F)(F)F)cc4NC(=O)C3)c2)nc(N(C)C)n1       melting point  248 to 252 °C
2  COCCNc1nc(C)cc(-c2cccc(C3=Nc4cc(C)c(Cl)cc4NC(=O)C3)c2)n1       melting point  222 to 224 °C
3  CCCOc1cc2c(cc1C(F)(F)F)NC(=O)CC(c1cccc(-c3cccnc3)c1)=N2       melting point  219 to 221 °C
4  CN(c1cc2c(cc1C(F)(F)F)NC(=O)CC(c1cccc(-c3cccnc3)c1)=N2)C1CC1       melting point  196 to 198 °C
5  C=Cc1cc2c(cc1C(F)(F)F)NC(=O)CC(c1cccc(-c3cc(C)nc(C)c3)c1)=N2       melting point  225 to 226 °C
6  Cc1cc(-c2cccc(C3=Nc4ccc(-n5cccc5)cc4NC(=O)C3)c2)ncn1       melting point  242 to 243 °C
7  Cc1cc(-c2cccc(C3=Nc4cc(C)c(C(F)(F)F)cc4NC(=O)C3)c2)nc(NCCO)n1       melting point  228 to 230 °C
8  O=C1CC(c2cccc(-c3ncccn3)c2)=Nc2ccc(C(F)(F)F)cc2N1       melting point  236 to 237 °C

###

Known melting point of a selection of molecules
MEASURED ATTRIBUTE: melting point

> print(dat)
                              line.notation  measured.attribute     meas.value
1  Cc1cc(-c2cccc(C3=Nc4cc(C)c(C(F)(F)F)cc4NC(=O)C3)c2)ncn1       melting point  227 to 230 °C
2  O=C1CC(c2cccc(-c3cccnc3)c2)=Nc2cc(N3CCOCC3)c(C(F)(F)F)cc2N1       melting point  198 to 201 °C
3  CNc1nc(C)cc(-c2cccc(C3=Nc4cc(C)c(C(F)(F)F)cc4NC(=O)C3)c2)n1       melting point  241 to 243 °C

###

Known melting point of a selection of molecules
MEASURED ATTRIBUTE: melting point

> print(dat)
                                    molecule  measured.attribute            meas.value
 1  CCc1cc(C)c(-c2cccc(C3=Nc4cc(C)c(C(F)(F)F)cc4NC(=O)C3)c2)cn1 [Example 254]       melting point                200 °C
 2  Cc1nccc(-c2cccc(C3=Nc4cc(Cl)c(Cl)cc4NC(=O)C3)c2)n1 [Example 306]       melting point         241 to 242 °C
 3  Cc1cc2c(cc1C(F)(F)F)NC(=O)CC(c1cccc(-c3ccccn3)c1)=N2 [Example 46]       melting point         251 to 253 °C
 4  Cc1cc(-c2cccc(C3=Nc4cc(C)c(Cl)cc4NC(=O)C3)c2)nc(N2CCOCC2)n1 [Example 327]       melting point         252 to 256 °C
 5  Cc1cc2c(cc1C(F)(F)F)NC(=O)CC(c1cccc(-c3ccnc(C4CCCC4)c3)c1)=N2 [Example 351]       melting point         218 to 219 °C
 6  O=C1CC(c2cccc(-c3ccncc3)c2)=Nc2cc(OCC(F)(F)F)c(C(F)(F)F)cc2N1 [Example 37]       melting point  221 to 222 °C (dec.)
 7  O=C1CC(c2cccc(-c3ncccn3)c2)=Nc2ccc(Cl)cc2N1 [Example 339]       melting point         217 to 222 °C
 8  CCCOc1cc2c(cc1C(F)(F)F)NC(=O)CC(c1cccc(-c3cc(C)nc(C)c3)c1)=N2 [Example 219]       melting point         205 to 206 °C
 9  Cc1cc(-c2cccc(C3=Nc4cc(F)c(C(F)(F)F)cc4NC(=O)C3)c2)cc(C)n1 [Example 240]       melting point         251 to 252 °C
10  CCOc1cc2c(cc1C(F)(F)F)NC(=O)CC(c1cccc(-c3cnc(CC)cc3C)c1)=N2 [Example 255]       melting point                205 °C
11  CN(C)c1cc2c(cc1C(F)(F)F)NC(=O)CC(c1cccc(-c3cncnc3)c1)=N2 [Example 85]       melting point                200 °C
12  CC(C)CNc1cc2c(cc1C(F)(F)F)NC(=O)CC(c1cccc(-c3ccncc3)c1)=N2 [Example 63]       melting point                198 °C
13  Cc1ccc(-c2cccc(C3=Nc4ccc(C(F)(F)F)cc4NC(=O)C3)c2)cn1 [Example 9]       melting point         215 to 218 °C

###

MEASURED ATTRIBUTE: melting point

> print(dat)
                              line.notation  measured.attribute     meas.value
1  Cc1cc(-c2cccc(C3=Nc4cc(N(C)C)c(C(F)(F)F)cc4NC(=O)C3)c2)ncn1       melting point  232 to 236 °C
2  CCOc1cc2c(cc1C(F)(F)F)NC(=O)CC(c1cccc(-c3cccnc3C3CC3)c1)=N2       melting point  187 to 188 °C
3  Cc1nnc(-c2cccc(C3=Nc4cc(N(C)C)c(C(F)(F)F)cc4NC(=O)C3)c2)nc1C       melting point  233 to 236 °C
4  Cc1ccc(-c2cccc(C3=Nc4cc(N(C)C)c(C(F)(F)F)cc4NC(=O)C3)c2)c(C)n1       melting point  187 to 189 °C
5  Cc1cc2c(cc1Cl)NC(=O)CC(c1ccnc(-c3ccncc3)c1)=N2       melting point  233 to 235 °C
6  CNc1cc(-c2cccc(C3=Nc4cc(C)c(Cl)cc4NC(=O)C3)c2)ncn1       melting point  240 to 243 °C
7  Cc1ccc(-c2cccc(C3=Nc4cc(F)c(Cl)cc4NC(=O)C3)c2)cn1       melting point  215 to 220 °C
8  Cc1cc2c(cc1C(F)(F)F)NC(=O)CC(c1cccc(-c3ccc(N(C)C)nc3)c1)=N2       melting point  231 to 233 °C

###

MEASURED ATTRIBUTE: melting point

> print(dat)
                              line.notation     meas.value
1  CCc1cc2c(cc1C(F)(F)F)NC(=O)CC(c1cccc(-c3cccnc3)c1)=N2  197 to 198 °C
2  Cc1cc(-c2cccc(C3=Nc4cc(C)c(Cl)cc4NC(=O)C3)c2)ncn1  226 to 227 °C
3   O=C1CC(c2cccc(-c3cccnc3)c2)=Nc2ccccc2N1  210 to 211 °C
4  Cc1nccc(-c2cccc(C3=Nc4ccc(Cl)cc4NC(=O)C3)c2)n1  215 to 220 °C
5  COCCOc1cc2c(cc1C(F)(F)F)NC(=O)CC(c1cccc(-c3ccnc(C)c3)c1)=N2  198 to 199 °C
6  Cc1cc2c(cc1C(F)(F)F)NC(=O)CC(c1cccc(-c3cc(N(C)C)ncn3)c1)=N2  239 to 242 °C
7  O=C1CC(c2cccc(-c3ncccn3)c2)=Nc2cc(Cl)c(Cl)cc2N1  227 to 230 °C
8  COc1ccc(-c2cccc(C3=Nc4ccc(Cl)cc4NC(=O)C3)c2)cn1  200 to 205 °C

###

MEASURED ATTRIBUTE: melting point (°C)

> print(dat)
                               line.notation  meas.value
 1  CC(C)c1cc(-c2cccc(C3=Nc4cc(Cl)c(Cl)cc4NC(=O)C3)c2)ccn1         195
 2  Cc1cc(C2CC2)ncc1-c1cccc(C2=Nc3ccc(C(F)(F)F)cc3NC(=O)C2)c1         119
 3  Cc1cc2c(cc1Cl)NC(=O)CC(c1cccc(-c3ccnc(C(F)(F)F)c3)c1)=N2         247
 4  O=C1CC(c2cccc(-c3ccnc(CNC4CC4)c3)c2)=Nc2cc(OCC(F)(F)F)c(C(F)(F)F)cc2N1         150
 5  Cc1cc(-c2cccc(C3=Nc4cc(OCC(F)(F)F)c(C(F)(F)F)cc4NC(=O)C3)c2)cc(C2CC2)n1         200
 6  CCOc1cc2c(cc1C(F)(F)F)NC(=O)CC(c1cccc(-c3cc(C)nc(CC)c3)c1)=N2         215
 7  Cc1cc(-c2cccc(C3=Nc4ccc(C(F)(F)F)cc4NC(=O)C3)c2)cc(CO)n1         228
 8  CCc1cnc(C)cc1-c1cccc(C2=Nc3ccc(C(F)(F)F)cc3NC(=O)C2)c1         183
 9  Cc1cc2c(cc1Cl)NC(=O)CC(c1cccc(-c3cncnc3)c1)=N2         248
10  CN(C)c1cc2c(cc1C(F)(F)F)NC(=O)CC(c1cccc(-c3ccnc(CO)c3)c1)=N2         223
11  Cc1cc2c(cc1C(F)(F)F)NC(=O)CC(c1cccc(-c3cnccn3)c1)=N2         237
12  CN(C)c1cc2c(cc1C(F)(F)F)NC(=O)CC(c1cccc(-c3cnccn3)c1)=N2         204
13  O=C1CC(c2cccc(-c3cncnc3)c2)=Nc2cc(Cl)c(Cl)cc2N1         272
14  CCCN(C)c1cc2c(cc1C(F)(F)F)NC(=O)CC(c1cccc(-c3cncnc3)c1)=N2         197
15  CC(C)c1ccc(-c2cccc(C3=Nc4cc(OCC(F)(F)F)c(C(F)(F)F)cc4NC(=O)C3)c2)cn1         197
16  O=C1CC(c2cccc(-c3cccnc3)c2)=Nc2ccc(Cl)cc2N1         232
17  COc1ccc(-c2cccc(C3=Nc4ccc(OC(F)(F)F)cc4NC(=O)C3)c2)cn1         186
